Recorded IC50 values for a group of molecules are listed next.
# study target: human TLR9 (Homo sapiens)
# Construct: host or cells: HEK-Blue hTLR9 (HEK-293)
# Sequence (Q9NR96 26-1032): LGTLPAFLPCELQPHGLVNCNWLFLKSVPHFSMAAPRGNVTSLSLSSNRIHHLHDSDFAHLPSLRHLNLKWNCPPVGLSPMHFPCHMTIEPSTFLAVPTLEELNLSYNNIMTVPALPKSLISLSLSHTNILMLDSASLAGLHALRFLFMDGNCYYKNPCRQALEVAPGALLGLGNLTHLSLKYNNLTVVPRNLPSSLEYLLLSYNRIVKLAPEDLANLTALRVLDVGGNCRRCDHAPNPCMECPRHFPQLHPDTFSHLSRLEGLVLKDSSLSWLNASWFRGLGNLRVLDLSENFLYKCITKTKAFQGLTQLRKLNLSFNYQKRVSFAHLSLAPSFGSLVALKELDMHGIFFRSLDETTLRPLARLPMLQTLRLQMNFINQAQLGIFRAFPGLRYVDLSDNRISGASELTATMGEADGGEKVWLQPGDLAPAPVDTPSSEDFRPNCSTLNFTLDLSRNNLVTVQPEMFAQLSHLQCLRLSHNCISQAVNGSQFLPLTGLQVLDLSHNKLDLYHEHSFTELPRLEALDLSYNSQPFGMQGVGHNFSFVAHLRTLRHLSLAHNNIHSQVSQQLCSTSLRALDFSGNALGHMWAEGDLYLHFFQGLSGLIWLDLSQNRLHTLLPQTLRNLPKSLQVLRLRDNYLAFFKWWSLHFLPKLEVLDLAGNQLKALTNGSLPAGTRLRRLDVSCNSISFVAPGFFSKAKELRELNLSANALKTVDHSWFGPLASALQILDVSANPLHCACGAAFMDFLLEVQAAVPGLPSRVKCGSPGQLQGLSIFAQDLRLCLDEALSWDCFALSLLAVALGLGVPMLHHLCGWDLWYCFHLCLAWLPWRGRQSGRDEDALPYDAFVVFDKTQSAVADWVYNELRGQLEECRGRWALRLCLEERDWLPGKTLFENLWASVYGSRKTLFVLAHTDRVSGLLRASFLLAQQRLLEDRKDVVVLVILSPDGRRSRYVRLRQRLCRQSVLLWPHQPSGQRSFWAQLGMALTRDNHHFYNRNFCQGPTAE
# measurement notes: HEK-Blue hTLR9 assay (SEAP reporter) with agonist ODN 2006
# Format: cell-based
# measurement conditions: Table B; HEK-Blue hTLR9 cells, ~3×EC50 ODN 2006, 18 h; exact values 8-point dilutions, approximate (~ or <) 4-point dilutions; read-out: ~IC50 (μM) with ODN2006

Examples with answers:
O=Cc1cc(S(=O)(=O)Nc2ccc(N3CCCC3)cc2)cc(F)c1O: ~2.9 µM
O=Cc1cc(C#Cc2ccc(N3CCOCC3)cc2)cc(F)c1O: < 1.2 µM
O=Cc1cc(C(=O)Nc2ccc(N3CCC(F)(F)C3)cc2)cc(F)c1O: < 1.2 µM

Please look at the following molecule next.
Reported IC50, molecule O=Cc1cc(C(=O)Nc2ccc(N3CC4CC4C3)cc2)cc(F)c1O (stereo not shown) : ____
< 1.2 µM

----------
# study target: human TLR2 (Homo sapiens, UniProt O60603)
# Construct: host or cells: HEK-Blue hTLR2 (HEK-293)
# Sequence (O60603 21-784): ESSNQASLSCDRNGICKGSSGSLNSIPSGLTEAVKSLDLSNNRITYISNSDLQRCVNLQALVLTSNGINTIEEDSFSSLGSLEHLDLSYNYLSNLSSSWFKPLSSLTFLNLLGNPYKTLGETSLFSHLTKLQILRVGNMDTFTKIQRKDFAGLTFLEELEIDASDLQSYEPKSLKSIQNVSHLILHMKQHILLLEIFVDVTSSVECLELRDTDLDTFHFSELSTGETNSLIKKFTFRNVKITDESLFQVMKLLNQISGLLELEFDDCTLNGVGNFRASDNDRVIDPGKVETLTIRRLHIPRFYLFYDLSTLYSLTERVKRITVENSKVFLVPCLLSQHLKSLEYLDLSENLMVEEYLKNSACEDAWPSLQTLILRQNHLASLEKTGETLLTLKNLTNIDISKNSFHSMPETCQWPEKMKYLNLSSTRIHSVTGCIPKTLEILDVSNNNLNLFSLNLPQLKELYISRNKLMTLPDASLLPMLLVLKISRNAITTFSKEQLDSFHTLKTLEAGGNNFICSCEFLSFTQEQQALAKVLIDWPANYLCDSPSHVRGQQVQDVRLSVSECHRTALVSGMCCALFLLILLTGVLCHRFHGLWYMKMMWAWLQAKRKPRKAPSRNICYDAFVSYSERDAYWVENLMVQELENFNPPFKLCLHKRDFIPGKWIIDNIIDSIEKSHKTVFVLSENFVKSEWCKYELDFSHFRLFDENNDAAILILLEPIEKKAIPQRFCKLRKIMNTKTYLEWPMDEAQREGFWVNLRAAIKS
# measurement notes: HEK-Blue hTLR2 antagonism assay (SEAP reporter) with agonist Pam3CSK4 (TLR1/2 agonist)
# Type: cell-based
# measurement conditions: Table A; HEK-Blue hTLR2 cells, ~3×EC50 Pam3CSK4, 18 h, SEAP OD 655 nm, 8-point dilutions
Response field label: string, one of 1 (yes) (IC50 strictly below 2 µM) or 0 (no).

Would you kindly verify if IC50 of O=Cc1cc(-c2cc(-c3ccc(N4CCCC4)cc3)cs2)cc(F)c1O is strictly less than 2 µM?
1 (yes)

I'd appreciate it if you could check whether Oc1c(F)cc(-c2cnn(-c3ccc(N4CCCC4)cc3)c2)cc1/C=N/N1CCOCC1 has IC50 smaller than 2 µM.
0 (no)

Answer whether the molecule Oc1c(F)cc(-c2cnn(-c3ccc(N4CCCC4)cc3)c2)cc1/C=N/N1CCN(C2CC2)CC1 has IC50 strictly less than 2 µM
0 (no)

For this molecule, is IC50 lower than 2 µM? COc1cc(-c2cnn(C3CCOCC3)c2)cc(C=O)c1O
0 (no)

Just wondering, is IC50 of O=Cc1cc(-c2ccn(-c3cccc(N4CCCC4)c3)n2)cc(F)c1O below 2 µM?
0 (no)

Here's an entry: CN1CCN(/N=C/c2cc(-c3ccn(-c4ccccc4)n3)cc(F)c2O)CC1 . Is its IC50 below 2 µM?
0 (no)

Does this molecule meet the criterion IC50 < 2 µM? O=Cc1cc(-c2nc(-c3ccccc3)co2)cc(F)c1O
0 (no)

# TODO verify IC50 < 2 µM strictly for this molecule: O=Cc1cc(-c2nc(-c3ccccc3)n[nH]2)cc(F)c1O
0 (no)

Strictly below 2 µM in IC50? COc1cc(-c2cnn(CCN3CCOCC3)c2)cc(C=O)c1O
0 (no)

# TODO verify IC50 < 2 µM strictly for this molecule: Oc1c(F)cc(-c2cnn(-c3ccc(N4CCCC4)cc3)c2)cc1C1OCCCO1
0 (no)

Here's an entry: O=Cc1cc(-c2nc(-c3ccccc3)ns2)cc(F)c1O . Is its IC50 below 2 µM?
0 (no)

Identify whether the molecule O=Cc1cc(-c2ccn(-c3cccc(N4CCCCC4)c3)n2)cc(F)c1O records IC50 below 2 µM.
0 (no)

Here's an entry: O=Cc1cc(-c2cnc(-c3ccccc3)s2)ncc1O . Is its IC50 below 2 µM?
0 (no)

Hi there! Is IC50 for COc1cc(-c2cnn(-c3cccc(Cl)c3)c2)cc(C=O)c1O below 2 µM, do you know?
0 (no)

Item Oc1cc(-c2cnn(-c3ccccc3)c2)cc(F)c1F : IC50 beneath 2 µM, strictly?
0 (no)
